The following molecules are listed with their measured Kd values.
# Study target: mfPRLR.mmh (monomeric macaca fascicularis PRLR)
# Sequence (as listed by the source): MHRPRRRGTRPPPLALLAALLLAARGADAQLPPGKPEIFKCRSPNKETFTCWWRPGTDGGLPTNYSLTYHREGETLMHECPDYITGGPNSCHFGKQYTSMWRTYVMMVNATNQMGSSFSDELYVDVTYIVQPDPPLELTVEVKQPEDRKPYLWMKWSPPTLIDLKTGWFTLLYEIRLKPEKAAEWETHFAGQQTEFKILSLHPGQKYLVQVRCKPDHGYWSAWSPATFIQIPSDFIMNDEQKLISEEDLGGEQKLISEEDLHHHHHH
# Procedure details: Surface plasmon resonance (Biacore T200), mAb-capture format
# Type: binding
# Conditions: 37° C., antibody-capture format, analyte mfPRLR.mmh
# Experimental: Antibodies, expressed as human IgG1 Fc “[…]” designations), were captured onto an anti-human Fc sensor surface (mAb-capture format), and soluble monomeric (hPRLR.mmh; SEQ ID NO:401, or macaca fascicularis (mf) PRLR.mmh; SEQ ID NO:403) or dimeric (hPRLR.mFc; SEQ ID NO:402) PRLR protein was injected over the sensor surface. Measurements were conducted on a T200 Biacore instrument. […]
Value kind: Kd

- Molecule: "H1H6785P: anti-PRLR antibody, human IgG1 Fc; HCVR/LCVR SEQ ID NOs 98/106 (antibody, V domains shown, human IgG1 Fc) VH: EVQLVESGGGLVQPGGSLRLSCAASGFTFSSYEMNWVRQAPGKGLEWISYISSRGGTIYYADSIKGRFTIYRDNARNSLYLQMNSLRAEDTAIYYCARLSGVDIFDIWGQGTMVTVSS VL: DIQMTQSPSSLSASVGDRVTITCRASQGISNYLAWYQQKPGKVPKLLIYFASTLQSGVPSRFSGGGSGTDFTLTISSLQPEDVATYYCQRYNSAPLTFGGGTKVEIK"
  Observed: "1.52 nM"
- Molecule: "H1H6774P: anti-PRLR antibody, human IgG1 Fc; HCVR/LCVR SEQ ID NOs 34/42 (antibody, V domains shown, human IgG1 Fc) VH: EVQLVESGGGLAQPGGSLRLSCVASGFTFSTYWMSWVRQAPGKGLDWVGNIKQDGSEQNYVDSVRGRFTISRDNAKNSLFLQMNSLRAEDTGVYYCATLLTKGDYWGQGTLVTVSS VL: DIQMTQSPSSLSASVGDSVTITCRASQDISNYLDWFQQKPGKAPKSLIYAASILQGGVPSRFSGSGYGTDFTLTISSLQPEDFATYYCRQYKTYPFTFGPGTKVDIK"
  Observed: "5 nM"
- Molecule: "H1H6781P: anti-PRLR antibody, human IgG1 Fc; HCVR/LCVR SEQ ID NOs 50/58 (antibody, V domains shown, human IgG1 Fc) VH: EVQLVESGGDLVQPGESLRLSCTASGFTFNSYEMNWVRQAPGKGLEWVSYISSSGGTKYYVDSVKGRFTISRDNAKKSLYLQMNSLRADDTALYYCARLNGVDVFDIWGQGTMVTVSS VL: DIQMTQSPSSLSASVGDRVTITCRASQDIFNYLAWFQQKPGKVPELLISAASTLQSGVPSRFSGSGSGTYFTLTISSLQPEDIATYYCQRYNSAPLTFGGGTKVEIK"
  Observed: "1.08 nM"
